assay: in vivo; conditions: NIH-III, mouse, plasma, ip, 15 mg/kg, Cmax obs, 15 mg/kg TH-4000 ip, ± SE
REPORTED_PROPERTY: Cmax (ng/mL)
Answers are plain numbers, in ng/mL.

Which Cmax value is on record for CN(C)C/C=C/C(=O)Nc1cc2c(Nc3ccc(Cl)c(Br)c3)ncnc2cn1 [TH-4000E] ?
47

---

assay: in vivo; conditions: NIH-III, mouse, plasma, ip, 15 mg/kg
REPORTED_PROPERTY: half-life (h)
Numbers only, in h.

Which half-life value is on record for CN(C)C/C=C/C(=O)Nc1cc2c(Nc3ccc(Cl)c(Br)c3)ncnc2cn1 [TH-4000E] ?
1.28

---

assay: in vivo; conditions: NIH-III, mouse, plasma, ip, 15 mg/kg, Cmax pred, 15 mg/kg TH-4000 ip, ± SE
REPORTED_PROPERTY: Cmax (ng/mL)
One number for each entry, in ng/mL.

Which Cmax value is on record for CN(C)C/C=C/C(=O)Nc1cc2c(Nc3ccc(Cl)c(Br)c3)ncnc2cn1 [TH-4000E] ?
50
